Measured apparent KD of K4 kissing-loop reporter, listed per entry for reference.
- Test system: K4 kissing-loop RNA reporter;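 note: bound reporter read as fluorescence of individual clusters on recovered sequencing chips by microscopy, with normalized cluster intensities fitted with a binding model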
- protocol.summary: apparent KD of K4 kissing-loop reporter; higher = weaker reporter binding
- conditions: Eterna round: R107; input ligand: theophylline 20 uM
Report as a plain number; the unit nM is understood.

# count of solved cases: 5
| sequence.code | u | apparent KD of K4 kissing-loop reporter |
| --- | --- | --- |
| UCAUGAAAGACGGCCGCCACUGAUGCUGGAGUGAUGUUUCGGACAUAGUAGAGUGAUGUUCUGCGCAGGACCGGGUCGUCAUGAA [KL-SSTryp-B10 #double Kiss] | nM | 130 |
| CAGAUCACAGAGUGAUGUUCUGUGUCCGAAGGAGCGCGCGAGAGCGCAGGUAGGUCGCGGAUACAGUUGACGUACCAUCUAGACA [Arg A Ex t3b] | nM | 246 |
| AAGCAGUCACUCGAAAUCAUCAAAGAUGAACGAGGACCGGUACGGCCGCCACUCGGAGUGAUGUUCCGAAGACUGCAAAAUAAAA [MatMod 2 - Jieux - Exclusion - Tryptophan A] | nM | 274 |
| AUGUGGAGCGACGUUUCGGGAUAUCGGGAAGGAGCGCUGAUAACGGCAGGUAGGUCGCCUGGUCCAGUGAUGUUGGGCAUGCAUU [Exclusion Arg A GF 24] | nM | 185 |
| GAUAUAUAUAGAGGAUAUAGCAGGUGAUACAAGAAAGUGAGUGAUGUUUAUGUAGAUGAUGAUAUGUUAGAAGGCUAUAUAUAUC [radioactive7-modED1598] | nM | 723 |

Reading of apparent KD of K4 kissing-loop reporter for GUAUCGCUAGGAGGAUAUUUCAAUUUGACUCUUUGAGUUAUUACGGAGUGAUGUUCCGAUUUACGGAAAGAAGGCCUAGUGAUAC [FMN B 12] with K4 kissing-loop RNA reporter: 172
